Value source: patent US12527779B2

test.system: human EP4 (hEP4) receptor (Homo sapiens)
assay.method.text: In vitro human EP4 functional antagonist activity using BRET biosensors (cAMP EPAC biosensor, TCS2510 stimulation)
run.conditions: antagonist activity vs EC60 TCS2510, hEP4 in HEK-293 T cells
Counter-ions that a name gives are not always drawn.
Consider the following compounds; for each one, report its IC50.

Problem: Give the reported IC50 for this compound. C[C@H](NC(=O)C1(c2ccc(OCC3CCCCC3)cc2)CCCC1)c1ccc(C(=O)O)cc1 [Example 108]
Result: < 0.1 µM

Problem: Return reported IC50. Input compound: C[C@H](NC(=O)C1(N2CC[C@@H](Oc3cccc(Cl)c3)C2)CC1)c1ccc(C(=O)O)cc1 [Example 160, hydrochloride]
Result: < 0.1 µM

Problem: Consider the compound C[C@H](NC(=O)C1(N2CC[C@@H](Oc3cccc(C(F)(F)F)c3)C2)CCOCC1)c1ccc(C(=O)N(C)C)cc1 [Example 170, hydrochloride] . State its measured IC50.
Result: < 0.1 µM

Problem: Supply recorded IC50 for C[C@H](NC(=O)C1(c2cccc(OCC3CCCCC3)n2)CCCC1)c1ccc(C(=O)O)cc1 [Example 123] here.
Result: < 1 µM

---

For each record, write down the corresponding pIC50.
test.system: human EP4 (hEP4) receptor (Homo sapiens)
assay.method.text: In vitro human EP4 functional antagonist activity using BRET biosensors (cAMP EPAC biosensor, TCS2510 stimulation)
run.conditions: antagonist activity vs EC60 TCS2510, hEP4 in HEK-293 T cells
pIC50: −log10 of the molar value. Where a name gives a salt, the structure may show the parent alone.

Problem: Name the recorded pIC50 of the compound listed here: O=C(O)c1ccc(C2(NC(=O)C3(N4CC[C@@H](Oc5ccccc5)C4)CCOCC3)CC2)cc1 [Example 153, hydrochloride]
Result: > 7.00

Problem: Please give measured pIC50 of the following entry: CN(CCOc1ccccc1OC(F)(F)F)C1(C(=O)NC2(c3ccc(C(=O)O)cc3)CC2)CCOCC1 [Example 44, hydrochloride]
Result: > 7.00

Problem: Look up and report measured pIC50 for this entry: Cc1ccc(OCCN(C)C2(C(=O)NC3(c4ccc(C(=O)O)cc4)CC3)CCOCC2)cc1 [Example 37, hydrochloride]
Result: > 6.00

Problem: Given the compound COc1cccc(OCCNC2(C(=O)N[C@@H](C)c3ccc(C(=O)O)cc3)CCOCC2)c1 [Example 13, hydrochloride] , write its reported pIC50.
Result: > 7.00

Problem: Identify measured pIC50 associated with C[C@H](NC(=O)C1(NCCOc2ccccc2)CCSCC1)c1ccc(C(=O)O)cc1
Result: > 7.00

Problem: Fill in reported pIC50 for this entry: C[C@H](NC(=O)C1(c2ccc(OCc3cccnc3)cc2)CCOCC1)c1ccc(C(=O)O)cc1
Result: > 6.00

Problem: Give me measured pIC50, please, for this compound: C[C@H](NC(=O)C1(N2CC[C@@H](Oc3cccc(C(F)(F)F)c3)C2)CCOCC1)c1ccccc1F [Example 189, hydrochloride]
Result: > 6.00

---

test.system: human EP4 (hEP4) receptor (Homo sapiens)
assay.method.text: In vitro human EP4 functional antagonist activity using BRET biosensors (cAMP EPAC biosensor, TCS2510 stimulation)
run.conditions: antagonist activity vs EC60 TCS2510, hEP4 in HEK-293 T cells
pIC50: −log10 of the molar value. Structures can show the parent of a compound that is named as a salt.
value.kind: pIC50

Problem: Hello, please tell me recorded pIC50 for this one: C[C@H](NC(=O)C(C)(C)N1CC[C@@H](Oc2cccc(Cl)c2)C1)c1ccc(C(=O)O)cc1 [Example 161, hydrochloride]
Result: > 7.00

Problem: // fetch pIC50 given entry O=C(O)c1ccc(C2(NC(=O)C3(N4CCC[C@H](Oc5cccc(Cl)c5)C4)CCOCC3)CC2)cc1 [Example 135, hydrochloride]
Result: > 6.00

Problem: Recall and state the measured pIC50 for C[C@H](NC(=O)C1(N2CC[C@@H](Oc3cccc(C(F)(F)F)c3)C2)CCOCC1)c1cccc(Cl)c1 [Example 191, hydrochloride] .
Result: > 6.00

---

Please respond with reported IC50 for every item in the list.
test.system: human EP4 (hEP4) receptor (Homo sapiens, UniProt P35408)
Sequence (P35408 whole entry): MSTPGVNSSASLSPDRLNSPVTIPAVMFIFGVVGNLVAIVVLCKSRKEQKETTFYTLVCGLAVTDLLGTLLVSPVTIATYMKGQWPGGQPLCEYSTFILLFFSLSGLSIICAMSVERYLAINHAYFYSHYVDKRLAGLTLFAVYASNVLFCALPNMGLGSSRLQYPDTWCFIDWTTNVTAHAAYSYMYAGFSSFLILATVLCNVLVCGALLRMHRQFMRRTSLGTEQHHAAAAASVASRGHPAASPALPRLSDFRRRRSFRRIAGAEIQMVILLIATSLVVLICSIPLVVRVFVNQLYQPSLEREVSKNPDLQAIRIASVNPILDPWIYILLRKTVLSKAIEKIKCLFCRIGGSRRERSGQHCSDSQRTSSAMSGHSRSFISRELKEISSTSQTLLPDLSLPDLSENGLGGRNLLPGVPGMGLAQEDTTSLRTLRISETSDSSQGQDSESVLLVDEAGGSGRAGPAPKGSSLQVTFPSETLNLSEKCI
assay.method.text: In vitro human EP4 functional antagonist activity using BRET biosensors (cAMP EPAC biosensor, TCS2510 stimulation)
run.conditions: antagonist activity vs EC60 TCS2510, hEP4 in HEK-293 T cells
Where a name gives a salt, the structure may show the parent alone.

Problem: Give the reported value of IC50 for this record: C[C@H](NC(=O)C1(NCCOc2ccccc2)CCCC1)c1ccc(C(=O)O)cc1 [Example 61, hydrochloride]
Result: < 100 nM

Problem: Indicate its recorded IC50; the compound in question is C[C@H](NC(=O)C(C)(C)N1CC[C@@H](Oc2cccc(C(F)(F)F)c2)C1)c1ccc(S(N)(=O)=O)cc1 [Example 203, hydrochloride]
Result: < 1000 nM

Problem: Respond only with IC50 recorded for Cc1cccc(OCCN(C)C2(C(=O)N[C@@H](C)c3ccc(C(=O)O)cc3)CCCCC2)c1 [Example 59, hydrochloride]
Result: < 100 nM

Problem: Specify measured IC50 for C[C@H](NC(=O)C1(N2CC[C@@H](Oc3cccc(Cl)c3)C2)CCC1)c1ccc(C(N)=O)cc1 [Example 172, hydrochloride] .
Result: < 100 nM

Problem: // Input: C[C@H](NC(=O)C1(c2cccc(OCc3ccccc3)c2)CCCC1)c1ccc(C(=O)O)cc1 . Output its IC50 only.
Result: < 100 nM

Problem: Retrieve IC50 measured for CN(CCOc1ccccc1)C1(C(=O)NC2(c3ccc(C(=O)O)cn3)CC2)CCOCC1 [Example 54, hydrochloride] and print it.
Result: < 1000 nM

Problem: Dear colleague, please send me the reported IC50 for CNC(=O)c1ccc([C@H](C)NC(=O)C2(N3CC[C@@H](Oc4cccc(C(F)(F)F)c4)C3)CCOCC2)cc1 [Example 169, hydrochloride] when you can.
Result: < 100 nM

Problem: Read off the recorded IC50 for COc1cccc(O[C@@H]2CCN(C3(C(=O)NC4(c5ccc(C(=O)O)cc5)CC4)CCOCC3)C2)c1 [Example 149, hydrochloride]
Result: < 100 nM

Problem: Read the entry CCC(CC)(C(=O)N[C@@H](C)c1ccc(C(=O)O)cc1)N1CC[C@@H](Oc2cccc(Cl)c2)C1 [Example 210, hydrochloride] and write its reported IC50.
Result: < 100 nM

Problem: For C[C@H](NC(=O)C1(N2CC[C@@H](Oc3cccc(C(F)(F)F)c3)C2)CCOCC1)c1ccccc1Cl [Example 192, hydrochloride] , write its IC50.
Result: < 1000 nM

Problem: Give me measured IC50, please, for this compound: CN(CCOc1ccc(Cl)cc1)C1(C(=O)NC2(c3ccc(C(=O)O)cc3)CC2)CCOCC1 [Example 31, hydrochloride]
Result: < 1000 nM

---

test.system: human EP4 (hEP4) receptor (Homo sapiens, UniProt P35408)
assay.method.text: In vitro human EP4 functional antagonist activity using BRET biosensors (cAMP EPAC biosensor, TCS2510 stimulation)
run.conditions: antagonist activity vs EC60 TCS2510, hEP4 in HEK-293 T cells
pIC50: −log10 of the molar value. Counter-ions that a name gives are not always drawn.
value.kind: pIC50

Problem: Respond only with pIC50 recorded for C[C@H](NC(=O)C1(c2cc(OCC3CCCCC3)ccn2)CCOCC1)c1ccc(C(=O)O)cc1
Result: > 6.00

Problem: State, in one line, measured pIC50 of C[C@H](NC(=O)C1(N2CC[C@@H](Oc3cccc(C(F)(F)F)c3)C2)CCC1)c1ccc(C(=O)O)cc1 [Example 165, hydrochloride]
Result: > 7.00

Problem: Input Cc1cccc(OCCNC2(C(=O)N[C@@H](C)c3ccc(C(=O)O)cc3)CCCCC2)c1 [Example 58, hydrochloride] , output reported pIC50.
Result: > 7.00

Problem: Look up and report measured pIC50 for this entry: C[C@H](NC(=O)C1(c2ccnc(OCC3CCCCC3)c2)CCCC1)c1ccc(C(=O)O)cc1
Result: > 7.00

Problem: Kindly indicate its recorded pIC50. Item: C[C@H](NC(=O)C1(N2CC[C@@H](Oc3cccc(C(F)(F)F)c3)C2)CCOCC1)c1ccc(S(N)(=O)=O)cc1 [Example 178, hydrochloride]
Result: > 7.00

Problem: Write down pIC50 measured for item O=C(O)c1ccc(C2(NC(=O)C3(N4CC[C@@H](Oc5cccc(F)c5)C4)CCOCC3)CC2)cc1 [Example 143, hydrochloride]
Result: > 7.00

Problem: Assign pIC50 to the following record: C[C@H](NC(=O)C1(c2ccc(OCC3CCCCC3)cn2)CCOCC1)c1ccc(C(=O)O)cc1
Result: > 6.00

---

test.system: human EP4 (hEP4) receptor (Homo sapiens)
Construct: expressed in transfected cells; host or cells: HEK-293 T cells, transient co-transfection with polyethylenimine
assay.method.text: In vitro human EP4 functional antagonist activity using BRET biosensors (cAMP EPAC biosensor, TCS2510 stimulation)
Type: cell-based
run.conditions: antagonist activity vs EC60 TCS2510, hEP4 in HEK-293 T cells
Description: Examples of the present invention were tested successively for their agonist and antagonist activities on human EP4 (hEP4) receptor transiently over-expressed in HEK-293 T cells. […] BRET assay: Receptor activity is detected by changes in BRET signal. […] Compounds and luciferase substrate are added to the cells using an automated device (Freedom Evo®, Tecan) and BRET readings are collected on EnVision (PerkinElmer) with specific filters (410 nm BW 80 nm, 515 nm BW 30 nm). […]
Counter-ions that a name gives are not always drawn.
value.kind: IC50

Problem: Look up and report measured IC50 for this entry: C[C@H](NC(=O)C1(c2ccc(OCCC3CCCCC3)cc2)CCOCC1)c1ccc(C(=O)O)cc1
Result: < 1 µM

Problem: Find the measured IC50 of C[C@H](NC(=O)C1(N2CCC[C@@H](Oc3cccc(Cl)c3)C2)CCOCC1)c1ccc(C(=O)O)cc1 [Example 136, hydrochloride] and report it.
Result: < 0.1 µM

Problem: Look up IC50 of C[C@H](NC(=O)C1(N2CC[C@@H](Oc3cccc(C(F)(F)F)c3)C2)CCC(F)(F)CC1)c1ccc(C(=O)O)cc1 [Example 163, hydrochloride] and report it.
Result: < 0.1 µM

Problem: Write down IC50 measured for item C[C@H](NC(=O)C1(c2ccc(OCC3CCCCC3)nc2)CCOCC1)c1ccc(C(=O)O)cc1
Result: < 1 µM

Problem: Report IC50, nothing else, for this compound: C[C@H](NC(=O)C1(N2CC[C@@H](Oc3cccc(OC(F)(F)F)c3)C2)CCOCC1)c1ccc(C(=O)O)cc1 [Example 146, hydrochloride]
Result: < 0.1 µM

Problem: Please supply the value of reported IC50 for the item CN(CCOc1ccccc1)C1(C(=O)NC2(c3ccc(C(=O)O)cc3)CC2)CCOC1 (stereo not shown) [Example 76, hydrochloride]
Result: < 1 µM

Problem: Please report the measured IC50 for C[C@H](NC(=O)C1(N(C)CCOc2cccc(Cl)c2)CCOC1)c1ccc(C(=O)O)cc1 (stereo partly shown) [Example 75, hydrochloride]
Result: < 0.1 µM
